Cited source for all entries: patent US8802700B2

Each item that follows carries a reported Emax.
target: ΔF508-CFTR (Homo sapiens, UniProt P13569, DEL508-508); construct: expressed in transfected cells; assay: Membrane potential optical assay (FRET voltage-sensor dyes, VIPR), identification of potentiator compounds; assay type: cell-based; conditions: Table 3; assay not given; read-out: % Activity (% Efficacy, relative efficacy)
Sequence (P13569 with tags, fused parts or gaps DEL508-508): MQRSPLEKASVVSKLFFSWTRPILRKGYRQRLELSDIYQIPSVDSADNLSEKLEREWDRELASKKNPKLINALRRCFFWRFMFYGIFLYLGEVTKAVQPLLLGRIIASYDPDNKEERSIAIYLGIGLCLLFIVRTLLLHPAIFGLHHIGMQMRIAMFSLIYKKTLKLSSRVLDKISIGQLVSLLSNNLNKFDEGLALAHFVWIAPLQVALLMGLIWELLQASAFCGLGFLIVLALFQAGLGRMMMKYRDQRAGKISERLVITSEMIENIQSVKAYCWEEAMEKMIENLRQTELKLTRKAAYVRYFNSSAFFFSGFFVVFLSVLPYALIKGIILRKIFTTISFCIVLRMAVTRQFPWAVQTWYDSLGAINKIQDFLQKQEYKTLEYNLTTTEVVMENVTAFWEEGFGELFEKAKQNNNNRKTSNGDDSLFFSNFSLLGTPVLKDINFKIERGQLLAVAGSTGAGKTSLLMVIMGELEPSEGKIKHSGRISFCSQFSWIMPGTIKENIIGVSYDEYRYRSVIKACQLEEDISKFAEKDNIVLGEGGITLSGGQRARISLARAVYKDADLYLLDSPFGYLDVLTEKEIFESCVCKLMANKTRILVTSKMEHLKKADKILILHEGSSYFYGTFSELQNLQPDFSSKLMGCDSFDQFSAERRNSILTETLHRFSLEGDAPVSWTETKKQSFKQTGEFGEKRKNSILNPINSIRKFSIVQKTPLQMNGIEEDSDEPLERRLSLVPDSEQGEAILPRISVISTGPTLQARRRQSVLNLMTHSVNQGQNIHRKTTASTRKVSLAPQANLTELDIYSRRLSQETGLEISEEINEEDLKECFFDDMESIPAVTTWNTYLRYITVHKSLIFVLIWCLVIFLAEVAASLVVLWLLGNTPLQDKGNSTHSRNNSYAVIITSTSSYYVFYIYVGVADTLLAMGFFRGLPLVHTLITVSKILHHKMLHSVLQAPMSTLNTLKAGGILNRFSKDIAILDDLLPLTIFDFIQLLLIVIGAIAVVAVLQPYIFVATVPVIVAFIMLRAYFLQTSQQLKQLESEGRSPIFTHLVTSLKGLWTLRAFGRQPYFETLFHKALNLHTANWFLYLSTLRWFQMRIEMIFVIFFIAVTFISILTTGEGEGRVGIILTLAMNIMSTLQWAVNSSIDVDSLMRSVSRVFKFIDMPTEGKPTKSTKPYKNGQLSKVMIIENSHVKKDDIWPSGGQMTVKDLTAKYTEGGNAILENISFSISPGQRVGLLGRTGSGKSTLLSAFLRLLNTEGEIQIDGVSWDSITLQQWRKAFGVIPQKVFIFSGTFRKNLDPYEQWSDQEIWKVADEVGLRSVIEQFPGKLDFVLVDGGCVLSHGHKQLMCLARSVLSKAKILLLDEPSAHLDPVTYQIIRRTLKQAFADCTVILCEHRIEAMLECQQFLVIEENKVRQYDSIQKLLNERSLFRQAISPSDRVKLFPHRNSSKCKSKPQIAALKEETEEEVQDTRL

Completed entries (count: 3):
>  <SMILES>
O=C1CSc2ccc(NC(=O)c3c[nH]c4ccccc4c3=O)cc2N1

>  <OBSERVED MEASUREMENT>
25 to 100%

$$$$
>  <SMILES>
COc1cccc2[nH]cc(C(=O)Nc3ccc4cc[nH]c4c3)c(=O)c12

>  <OBSERVED MEASUREMENT>
25 to 100%

$$$$
>  <SMILES>
CC(CO)(CO)c1ccc(NC(=O)c2c[nH]c3ccc(F)cc3c2=O)cc1

>  <OBSERVED MEASUREMENT>
< 25%

$$$$

Attention now turns to another entry.
Entry CC1CCN(S(=O)(=O)c2ccc3[nH]cc(C(=O)Nc4cc5[nH]ccc5cc4C(C)(C)C)c(=O)c3c2)CC1 ; Emax = 25 to 100%

----------
biological target: ΔF508-CFTR (Homo sapiens, UniProt P13569, DEL508-508); construct: expressed in transfected cells; assay: Membrane potential optical assay (FRET voltage-sensor dyes, VIPR), identification of potentiator compounds; assay type: cell-based; settings: Table 3; assay not given; read-out: % Activity (% Efficacy, relative efficacy)
MEASURED PROPERTY: Emax

Completed entries (count: 3):
>  <MOLECULE>
CSc1nc2ccccc2c(O)c1C(=O)Nc1ccc2cc[nH]c2c1 [Compound 374]

>  <Emax>
< 25%

$$$$
>  <MOLECULE>
CC(=O)Nc1cccc(NC(=O)c2c[nH]c3ccccc3c2=O)c1 [Compound 419]

>  <Emax>
< 25%

$$$$
>  <MOLECULE>
O=C(Nc1ccc(C(F)(F)F)cc1Cl)c1c[nH]c2ccc(F)cc2c1=O [Compound 636]

>  <Emax>
< 25%

$$$$

Attention now turns to another entry.
Entry COc1ccc(NC(=O)c2c[nH]c3ccccc3c2=O)cc1OC [Compound 122] ; Emax = < 25%

----------
target: ΔF508-CFTR (Homo sapiens, UniProt P13569, DEL508-508); construct: expressed in transfected cells; assay: Membrane potential optical assay (FRET voltage-sensor dyes, VIPR), identification of potentiator compounds; assay type: cell-based; details: Table 3; assay not given; read-out: % Activity (% Efficacy, relative efficacy)
MEASURED PROPERTY: Emax

Completed entries (count: 2):
>  <MOLECULE>
CC(C)(C)c1cc(F)c(NC(=O)c2c[nH]c3c(C#N)cccc3c2=O)cc1O [Compound 519]

>  <MEASURED PROPERTY>
Emax

>  <OBSERVED MEASUREMENT>
25 to 100%

$$$$
>  <MOLECULE>
O=C(Nc1ccc(CO)cc1)c1c[nH]c2ccccc2c1=O [Compound 209]

>  <MEASURED PROPERTY>
Emax

>  <OBSERVED MEASUREMENT>
25 to 100%

$$$$

Entry O=C(Nc1ccc(N2CCOCC2)cc1)c1c[nH]c2ccccc2c1=O [Compound 457] ; Emax = < 25%

Entry CC1(C)CCNc2cc(NC(=O)c3c[nH]c4ccccc4c3=O)ccc21 [Compound 300] ; Emax = 25 to 100%

Entry O=C(Nc1ccccc1-c1ccc(Oc2ccccc2)cc1)c1c[nH]c2ccccc2c1=O [Compound 410] ; Emax = > 100%
